tgt: rat mGlu4 (Rattus norvegicus)
Sequence (P31423 33-912): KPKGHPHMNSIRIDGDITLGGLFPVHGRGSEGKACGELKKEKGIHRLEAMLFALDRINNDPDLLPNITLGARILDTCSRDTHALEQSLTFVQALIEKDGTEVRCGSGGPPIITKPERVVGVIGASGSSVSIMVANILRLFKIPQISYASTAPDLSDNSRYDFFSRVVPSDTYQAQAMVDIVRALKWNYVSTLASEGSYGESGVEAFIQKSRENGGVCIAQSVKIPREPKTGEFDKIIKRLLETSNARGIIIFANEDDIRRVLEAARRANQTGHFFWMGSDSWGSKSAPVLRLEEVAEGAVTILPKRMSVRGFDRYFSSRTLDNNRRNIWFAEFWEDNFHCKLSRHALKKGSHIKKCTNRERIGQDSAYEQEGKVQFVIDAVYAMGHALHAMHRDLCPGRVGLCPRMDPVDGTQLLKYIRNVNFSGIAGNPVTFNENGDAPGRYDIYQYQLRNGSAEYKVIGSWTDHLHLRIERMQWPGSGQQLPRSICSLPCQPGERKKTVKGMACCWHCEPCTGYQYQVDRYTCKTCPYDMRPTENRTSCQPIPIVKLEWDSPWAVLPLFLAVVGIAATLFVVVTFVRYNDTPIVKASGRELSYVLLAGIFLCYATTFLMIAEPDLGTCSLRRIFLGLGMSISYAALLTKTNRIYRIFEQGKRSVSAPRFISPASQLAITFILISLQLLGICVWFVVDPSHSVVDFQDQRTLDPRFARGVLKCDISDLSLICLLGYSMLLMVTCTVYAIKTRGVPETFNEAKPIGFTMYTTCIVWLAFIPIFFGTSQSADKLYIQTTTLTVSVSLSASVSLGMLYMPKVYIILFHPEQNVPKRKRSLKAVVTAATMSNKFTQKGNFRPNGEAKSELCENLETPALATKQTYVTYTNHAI
assay: GIRK/thallium flux assay, rat mGlu4/HEK/GIRK cells
Type: cell-based
measurement setup: read-out: EC50 (PAM potency); rat mGlu4, GIRK/thallium flux
property measured: EC50 (nM)
Numbers only, in nM.

Q. Looking for the measured EC50 of Fc1ccc(Nc2n[nH]c3cccnc23)cc1Cl [VU0418506] , can you help?
A. 46
